B1: library; numbered along this chain (parent)
chain: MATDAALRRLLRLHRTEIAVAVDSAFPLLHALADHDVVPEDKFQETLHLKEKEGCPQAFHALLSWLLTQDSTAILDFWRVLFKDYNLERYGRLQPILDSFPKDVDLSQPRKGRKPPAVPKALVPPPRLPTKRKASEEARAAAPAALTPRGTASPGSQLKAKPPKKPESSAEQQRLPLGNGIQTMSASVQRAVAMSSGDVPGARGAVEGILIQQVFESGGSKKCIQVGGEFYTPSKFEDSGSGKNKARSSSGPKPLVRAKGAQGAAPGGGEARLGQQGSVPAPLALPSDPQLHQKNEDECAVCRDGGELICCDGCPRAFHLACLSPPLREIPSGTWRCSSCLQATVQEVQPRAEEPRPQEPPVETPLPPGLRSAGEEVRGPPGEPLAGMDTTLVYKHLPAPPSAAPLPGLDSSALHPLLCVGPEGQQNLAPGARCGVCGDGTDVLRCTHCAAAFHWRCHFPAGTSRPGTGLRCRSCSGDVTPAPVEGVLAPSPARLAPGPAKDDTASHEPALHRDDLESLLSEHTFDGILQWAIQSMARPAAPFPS

Variants of: B1
Protocol: AIRE transcriptional activation functional score (insulin promoter-GFP; nonsense median 0, synonymous median 1) (normalised score); higher = higher AIRE activity (more reporter activation)
Condition Summary: with insulin promoter-GFP reporter in HEK293
Tag: rule met if measured AIRE transcriptional activation functional score is not below 0.9, rule not met if it is.

INPUT: For this variant, is measured AIRE transcriptional activation functional score 0.9 or higher? A61R
OUTPUT: rule not met

INPUT: Given the entry G260M , answer whether its AIRE transcriptional activation functional score meets or surpasses 0.9.
OUTPUT: rule met

INPUT: Check this variant for AIRE transcriptional activation functional score at or above 0.9: D98R
OUTPUT: rule not met

INPUT: Answer whether AIRE transcriptional activation functional score of K50E is greater than or equal to 0.9.
OUTPUT: rule not met

INPUT: Textbook exercise: given the entry S241D , state whether its AIRE transcriptional activation functional score is greater than or equal to 0.9.
OUTPUT: rule met

INPUT: Can A432T be said to have AIRE transcriptional activation functional score at or above 0.9?
OUTPUT: rule not met

INPUT: Is AIRE transcriptional activation functional score at least 0.9? Consider C457T
OUTPUT: rule not met

INPUT: Is the recorded value of AIRE transcriptional activation functional score equal to or greater than 0.9 for this variant? L11Q
OUTPUT: rule not met

INPUT: # check: AIRE transcriptional activation functional score of E296K is greater than or equal to 0.9
OUTPUT: rule not met

INPUT: Quick check: does Q225D have AIRE transcriptional activation functional score greater than or equal to 0.9?
OUTPUT: rule not met

INPUT: Could you please find out whether G178K has AIRE transcriptional activation functional score that meets 0.9 or exceeds it?
OUTPUT: rule not met

INPUT: Dear colleague, could you confirm whether T504N has AIRE transcriptional activation functional score at or above 0.9?
OUTPUT: rule not met

INPUT: Check the entry A321Y : does AIRE transcriptional activation functional score equal or exceed 0.9?
OUTPUT: rule not met

INPUT: # bool: AIRE transcriptional activation functional score of A6W >= 0.9
OUTPUT: rule not met

INPUT: Threshold query (AIRE transcriptional activation functional score >= 0.9) on L273V
OUTPUT: rule met

INPUT: Determine whether this variant has AIRE transcriptional activation functional score no lower than 0.9: G204Y
OUTPUT: rule not met

INPUT: Could you tell me if the measured AIRE transcriptional activation functional score of G424P reaches 0.9 or more?
OUTPUT: rule met

INPUT: Does AIRE transcriptional activation functional score meet or surpass 0.9 for G424R ?
OUTPUT: rule met

INPUT: AIRE transcriptional activation functional score >= 0.9 for A121S ?
OUTPUT: rule met

INPUT: Say whether K395F shows AIRE transcriptional activation functional score of 0.9 or more.
OUTPUT: rule not met

INPUT: Record G498L ; criterion: AIRE transcriptional activation functional score no lower than 0.9. Met?
OUTPUT: rule met

INPUT: Quick check, AIRE transcriptional activation functional score >= 0.9? L283R
OUTPUT: rule met

INPUT: Is the recorded value of AIRE transcriptional activation functional score equal to or greater than 0.9 for this variant? T130H
OUTPUT: rule not met

INPUT: For this variant, is measured AIRE transcriptional activation functional score 0.9 or higher? D439C
OUTPUT: rule met

INPUT: Given the entry A403W , answer whether its AIRE transcriptional activation functional score meets or surpasses 0.9.
OUTPUT: rule met

INPUT: Check if AIRE transcriptional activation functional score >= 0.9 (inclusive). Item: N427A
OUTPUT: rule met

INPUT: Form field: AIRE transcriptional activation functional score at least 0.9? Entry: E307F
OUTPUT: rule not met

INPUT: Is AIRE transcriptional activation functional score for L63V at or above 0.9?
OUTPUT: rule not met

INPUT: Check the entry V377I : does AIRE transcriptional activation functional score equal or exceed 0.9?
OUTPUT: rule met

INPUT: Determine whether this variant has AIRE transcriptional activation functional score no lower than 0.9: H512I
OUTPUT: rule met

INPUT: Given R149F , state whether its AIRE transcriptional activation functional score is at least 0.9.
OUTPUT: rule not met

INPUT: Is reported AIRE transcriptional activation functional score greater than or equal to 0.9 here: K235N
OUTPUT: rule not met

INPUT: Does AIRE transcriptional activation functional score meet or surpass 0.9 for P115H ?
OUTPUT: rule met

INPUT: hey, is AIRE transcriptional activation functional score for this one >= 0.9? F82P
OUTPUT: rule not met

INPUT: Can T232K be said to have AIRE transcriptional activation functional score at or above 0.9?
OUTPUT: rule met

INPUT: Given L470T , state whether its AIRE transcriptional activation functional score is at least 0.9.
OUTPUT: rule not met

INPUT: Exam item: decide whether the reported AIRE transcriptional activation functional score for R132S is at least 0.9.
OUTPUT: rule not met

INPUT: Is AIRE transcriptional activation functional score at least 0.9? Consider P119N
OUTPUT: rule met

INPUT: Assess whether reported AIRE transcriptional activation functional score for P129Q sits at 0.9 or higher.
OUTPUT: rule not met

INPUT: In plain terms: is recorded AIRE transcriptional activation functional score at least 0.9 for L495I ?
OUTPUT: rule met

INPUT: Is it the case that F215E has AIRE transcriptional activation functional score reaching or exceeding 0.9?
OUTPUT: rule not met

INPUT: Determine whether measured AIRE transcriptional activation functional score meets or exceeds 0.9 for C475I
OUTPUT: rule not met

INPUT: Can P466I be said to have AIRE transcriptional activation functional score at or above 0.9?
OUTPUT: rule met

INPUT: Dear colleague, could you confirm whether R456Y has AIRE transcriptional activation functional score at or above 0.9?
OUTPUT: rule met

INPUT: Does the variant Q534F have recorded AIRE transcriptional activation functional score that is 0.9 or more?
OUTPUT: rule not met

INPUT: Hello, I need to know if L327Q has measured AIRE transcriptional activation functional score not below 0.9. Thanks!
OUTPUT: rule met

INPUT: Is AIRE transcriptional activation functional score at least 0.9? Consider P481L
OUTPUT: rule not met

INPUT: Reported AIRE transcriptional activation functional score reaches at least 0.9 for V256C ?
OUTPUT: rule not met

INPUT: Decide: AIRE transcriptional activation functional score of S402M >= 0.9?
OUTPUT: rule not met

INPUT: Hello, I need to know if D514V has measured AIRE transcriptional activation functional score not below 0.9. Thanks!
OUTPUT: rule not met

INPUT: Reported AIRE transcriptional activation functional score at or above 0.9? T441V
OUTPUT: rule not met

INPUT: Kindly determine if AIRE transcriptional activation functional score recorded for L175G is above or exactly 0.9.
OUTPUT: rule not met

INPUT: Has L146S a recorded AIRE transcriptional activation functional score greater than or equal to 0.9?
OUTPUT: rule met

INPUT: I'd appreciate it if you could say whether E423K has AIRE transcriptional activation functional score at least equal to 0.9.
OUTPUT: rule not met

INPUT: Determine whether measured AIRE transcriptional activation functional score meets or exceeds 0.9 for K235F
OUTPUT: rule not met

INPUT: Hi, just wondering whether M536Y shows AIRE transcriptional activation functional score of 0.9 or higher.
OUTPUT: rule not met

INPUT: Is it the case that T3L has AIRE transcriptional activation functional score reaching or exceeding 0.9?
OUTPUT: rule met

INPUT: Decide: is the reported value of AIRE transcriptional activation functional score for A138N equal to or greater than 0.9?
OUTPUT: rule not met

INPUT: hey, is AIRE transcriptional activation functional score for this one >= 0.9? L520H
OUTPUT: rule not met

INPUT: Could you please find out whether A540T has AIRE transcriptional activation functional score that meets 0.9 or exceeds it?
OUTPUT: rule not met

INPUT: Test whether the variant P56A records AIRE transcriptional activation functional score of 0.9 or higher.
OUTPUT: rule not met

INPUT: Kindly determine if AIRE transcriptional activation functional score recorded for L323Y is above or exactly 0.9.
OUTPUT: rule not met

INPUT: Check the entry I181V : does AIRE transcriptional activation functional score equal or exceed 0.9?
OUTPUT: rule not met

INPUT: Given the entry D238L , answer whether its AIRE transcriptional activation functional score meets or surpasses 0.9.
OUTPUT: rule met

INPUT: Is reported AIRE transcriptional activation functional score greater than or equal to 0.9 here: G274H
OUTPUT: rule met

INPUT: In plain terms: is recorded AIRE transcriptional activation functional score at least 0.9 for L291S ?
OUTPUT: rule met

INPUT: Given the entry V20H , answer whether its AIRE transcriptional activation functional score meets or surpasses 0.9.
OUTPUT: rule not met

INPUT: Evaluate A25N : AIRE transcriptional activation functional score at minimum 0.9?
OUTPUT: rule not met

INPUT: Textbook exercise: given the entry L87C , state whether its AIRE transcriptional activation functional score is greater than or equal to 0.9.
OUTPUT: rule not met

INPUT: // inclusive: AIRE transcriptional activation functional score at least 0.9? input: S153C
OUTPUT: rule met

INPUT: State whether the measured AIRE transcriptional activation functional score reaches 0.9, counting equality as reaching it, for G260V
OUTPUT: rule met

INPUT: Hello, I need to know if F543C has measured AIRE transcriptional activation functional score not below 0.9. Thanks!
OUTPUT: rule not met

INPUT: Answer whether AIRE transcriptional activation functional score of T130W is greater than or equal to 0.9.
OUTPUT: rule met

INPUT: Given the entry S545P , answer whether its AIRE transcriptional activation functional score meets or surpasses 0.9.
OUTPUT: rule not met

INPUT: Kindly determine if AIRE transcriptional activation functional score recorded for F100A is above or exactly 0.9.
OUTPUT: rule not met

INPUT: Reported AIRE transcriptional activation functional score reaches at least 0.9 for A193Q ?
OUTPUT: rule met

INPUT: Record R92T ; criterion: AIRE transcriptional activation functional score no lower than 0.9. Met?
OUTPUT: rule not met

INPUT: Kindly determine if AIRE transcriptional activation functional score recorded for A489Y is above or exactly 0.9.
OUTPUT: rule met

INPUT: Kindly determine if AIRE transcriptional activation functional score recorded for A399N is above or exactly 0.9.
OUTPUT: rule not met
